Molecular target: PTPN2 (TC-PTP) (Homo sapiens, UniProt P17706)
Construct: catalytic domain (recombinant GST-tag TC-PTP, BPS Bioscience 30013)
Sequence (P17706 1-317 limits assumed): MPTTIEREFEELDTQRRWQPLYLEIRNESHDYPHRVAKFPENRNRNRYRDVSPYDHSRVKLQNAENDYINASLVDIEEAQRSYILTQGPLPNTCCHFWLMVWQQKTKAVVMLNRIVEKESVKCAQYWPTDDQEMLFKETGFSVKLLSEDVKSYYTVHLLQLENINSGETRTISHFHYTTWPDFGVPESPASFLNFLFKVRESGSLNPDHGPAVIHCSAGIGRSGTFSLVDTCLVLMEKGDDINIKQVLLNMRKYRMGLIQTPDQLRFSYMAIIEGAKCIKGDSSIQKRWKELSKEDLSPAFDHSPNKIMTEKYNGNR
Assay: fluorogenic phosphatase assay with Lineweaver-Burk kinetics; also CETSA on purified catalytic domain (destabilization), CD4 T cell lysates, and TPP in live PBMCs and K562 cells
RESULT TYPE: pIC50
# log scale: pIC50 equals minus log10 of the concentration in mol/L

Exam item: Which pIC50 is listed for O=c1c2ccccc2nnn1O [HODHBt, 3-Hydroxy-1,2,3-benzotriazin-4(3H)-one] ?
Marked response: 3.26
